Where these numbers come from: PubChem BioAssay (NCI)

For each of the compounds below, state its TGI.
# Tested on: SK-OV-3 ovarian
# experimental-protocol: NCI tumour cell line growth inhibition, 48 h

compound	TGI
CC1CSc2nc3[nH]c(=S)[nH]c3c(=O)n2C1 (centres undefined)	> 100 µM
CCCN(CCC)C(=O)Cc1c2n(c3ccccc13)Cc1ccccc1-2	> 100 µM
Cc1c(Cl)cccc1NC(=O)c1sc2nc3c(cc2c1N)CCCCCC3	26.5 µM

Give TGI for each of the items listed below.
1. COC[C@H]1OC(=O)c2coc3c2[C@@]1(C)C1=C(C3=O)[C@@H]2CCC(=O)[C@@]2(C)C[C@H]1OC(C)=O
2. N#C[C@](CO)(NC(=O)OCc1ccccc1)C(F)F
3. C/C(=N/NC(=S)N(Cc1ccccn1)Cc1ccccn1)c1cnccn1
4. Cc1nc(NC(=S)Nc2ccc(F)cc2)sc1C(=O)NNC(=S)Nc1ccc(F)cc1

23.5 µM
> 100 µM
4.27 µM
61.6 µM

Give TGI for each of the items listed below.
1. O/N=C1\CC2(N3CCOCC3)CCC1(Cc1ccccc1)CC2
2. CCCCC(=O)[O-].N.N.N.N.N.[Co+3].[O-][Cl+3]([O-])([O-])[O-]
3. Cc1nn2c(/C=C3/C(=O)Nc4ccc(Cl)cc43)c(-c3ccccc3)nc2s1
4. CC1C=C(NCC2(CO)CCC2)NC(N)=N1 (centres undefined)
5. CC1(C)SC2C(NC(=O)Cc3ccccc3)C(=O)N2C1C(=O)O (centres undefined)
6. CCOC(=O)[C@@H](C)C[C@H](Cc1ccccc1)NC(=O)c1csc([C@@H](C[C@H](C(C)C)N(C)C(=O)[C@H](CCC(C)C)NC(=O)[C@H]2CCCCN2C)OC(C)=O)n1
7. CN(C)CC#Cc1cccc(C(=O)c2cnn(-c3ccc(F)cc3)c2N)c1

["83 µM", "> 100 µM", "5.03 µM", "> 100 µM", "> 100 µM", "9.26 µM", "> 25 µM"]

Give TGI for each of the items listed below.
1. C=C1CC(CNc2cc(Cl)nc(N)n2)C1
2. CC1(C)N=C(N)N=C(N)N1c1ccc(CCCCc2ccc(Cl)cc2Cl)cc1
3. O=C(N/N=C/c1cc(Br)cc(Br)c1[O-])c1ccccc1O.O=C(N/N=C/c1cc(Br)cc(Br)c1[O-])c1ccccc1O.[Mn+2]
4. CCOC(=O)C#Cc1ccc(C#CC(=O)OCC)cc1

1: > 100 µM; 2: 24.7 µM; 3: 33.8 µM; 4: 84.2 µM
